# study_system: Shiga toxin 2 (Escherichia coli O157:H7) (UniProt P09385+P09386)
# assay_protocol: E. coli 0.157:H7 Shiga Toxin SOP - stx2 screening assay
# Assay type: functional
# Set-up: scale not given: direction of the effect not stated beside the values
# experimental_setup: 30 µM
property: Percent Effect (%)
Just the number please, in %, no unit attached.

molecule | Percent Effect / %
Cn1cc(C(=O)NC2CCN(C(=O)NCCSC(F)(F)F)CC2)cn1 | -30.6

Short answer please: Percent Effect, Shiga toxin 2 (Escherichia coli O157:H7) (UniProt P09385+P09386), entry CCOc1cc(CNC(=O)N2CCC(Cc3cnn(C)c3)C2)ccn1 (centres undefined)
2.76

Now give it for CO[C@H]1CCN(c2ncccn2)[C@H]1Cc1ccccc1 too.
-19.4

Now give it for CC1=Nc2c(c(=O)[nH]n2C(C)C)C(c2ccc(F)c(F)c2)S1 (centres undefined) too.
22.2

Now give it for O=C(NCCc1ccccn1)NC1CCN(c2ncccn2)CC1 too.
-12.3

Now give it for COc1ccccc1[C@@H]1CN(C(=O)c2csc(C)n2)C[C@H]1C(=O)O too.
-9.43

Now give it for Cc1nc(C2CCCN(C(=O)CCCn3ccnc3C)C2)no1 (centres undefined) too.
14.1

Now give it for O=C(N1CCOCC1)N1CCc2ncnc(NC3CC3)c2CC1 too.
-39.4

Now give it for CN(C(=O)c1ccccn1)c1nc2c(s1)CCc1c-2cnn1C too.
-76.1

Now give it for Cc1[nH]ccc1C(=O)Nc1cccc(CN2CCC(O)CC2)c1 too.
-28.9

Now give it for CCOc1ccc(-n2nnc(C(=O)O)c2-c2ccncc2)cc1 too.
-21.9

Now give it for Cn1cnc2c1CCN(CCCOc1ccc(C#N)cc1)C2 too.
-24.8

Now give it for O=C(NCCOc1ccc2c(c1)OCO2)N1CCC1 too.
-21.5

Now give it for O=S1(=O)COCCN1Cc1cccc(Cl)c1 too.
10.7

Now give it for CCN(CC)c1ccc(NS(=O)(=O)c2cnn(C)c2)cn1 too.
-30.7

Now give it for COc1ncccc1C(=O)NCC(C)Oc1cccnc1 (centres undefined) too.
-2.36

Now give it for Cc1[nH]/c(=N\C(=O)c2csc(NC3CC3)n2)sc1C too.
7.35

Now give it for O=C(CN1CCc2c(ncn2C2CC2)C1)NC1CC1 too.
5.91

Now give it for CCc1nnc2n1CCN(Cc1ccc3c(c1)OCCO3)C2 too.
15.5
